Values compiled from patent US20220315554A1.

Tested On: FAP-expressing human WI-38 fibroblasts (Homo sapiens, UniProt Q12884)
Construct: FAP-expressing human WI-38 fibroblasts (ECACC) were cultured in EMEM; host or cells: WI-38 human fibroblasts
Sequence (Q12884 1-760): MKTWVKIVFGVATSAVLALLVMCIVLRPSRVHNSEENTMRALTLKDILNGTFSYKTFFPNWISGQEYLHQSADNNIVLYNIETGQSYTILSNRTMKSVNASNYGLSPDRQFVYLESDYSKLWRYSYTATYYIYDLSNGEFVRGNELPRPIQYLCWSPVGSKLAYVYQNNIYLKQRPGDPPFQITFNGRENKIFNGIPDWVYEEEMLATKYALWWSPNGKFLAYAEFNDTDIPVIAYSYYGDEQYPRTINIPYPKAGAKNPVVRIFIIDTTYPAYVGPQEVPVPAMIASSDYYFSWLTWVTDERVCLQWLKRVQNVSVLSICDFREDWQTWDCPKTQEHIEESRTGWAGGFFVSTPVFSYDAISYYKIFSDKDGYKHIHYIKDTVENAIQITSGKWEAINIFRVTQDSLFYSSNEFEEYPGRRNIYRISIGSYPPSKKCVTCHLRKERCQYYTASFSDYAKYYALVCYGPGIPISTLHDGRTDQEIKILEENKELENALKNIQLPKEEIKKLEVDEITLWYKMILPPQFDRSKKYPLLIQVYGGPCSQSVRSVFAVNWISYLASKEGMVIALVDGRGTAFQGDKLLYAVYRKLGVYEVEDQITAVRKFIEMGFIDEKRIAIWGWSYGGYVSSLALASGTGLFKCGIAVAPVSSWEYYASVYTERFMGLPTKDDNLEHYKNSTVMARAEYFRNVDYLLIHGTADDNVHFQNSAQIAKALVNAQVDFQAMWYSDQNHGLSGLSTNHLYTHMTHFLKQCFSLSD
Assay Overview: Competitive FACS binding assay
Condition Details: pIC50 Category (FACS), competition with 3 nM Cy5-labeled compound, WI-38 fibroblasts, 4° C., 1 hour
Experimental: Cells were analyzed in an Attune NxT flow cytometer. […]
pIC50: −log10 of the molar value. Numbered stars: 1 amine (or outer) side, 2 acyl side, 3 side chain; on linkers, the order of the positions; unused ones are H or OH. Bridge positions count the residues as written; N and C are the ends. Peptide text beside a SMILES is read from it. mXylylene = c1cc(C[*:1])cc(C[*:2])c1
Readout Label: pIC50

Input: // map CSCC[C@H](NC(C)=O)C(=O)N[C@H]1CSCc2cccc(c2)CSC[C@@H](C(=O)N[C@@H](C)C(=O)N[C@@H](Cc2c[nH]cn2)C(=O)N[C@@H](Cc2ccccc2)C(=O)N[C@@H](CCCNC(=N)N)C(=O)N[C@@H](CC(=O)O)C(N)=O)NC(=O)[C@H](Cc2ccccc2)NC(=O)[C@H](CCC(=O)O)NC(=O)[C@H]([C@@H](C)O)NC(=O)[C@@H]2CCCN2C(=O)[C@@H]2CCCN2C1=O [3BP-3194] (Ac-MCPPTEFCAHFRD-NH2; linker 2-8 via mXylylene) to recorded pIC50 (system: FAP-expressing human WI-38 fibroblasts (Homo sapiens, UniProt Q12884))
Output: 7.10 to 8.00

----------
Tested On: FAP-expressing human WI-38 fibroblasts (Homo sapiens, UniProt Q12884)
Construct: FAP-expressing human WI-38 fibroblasts (ECACC) were cultured in EMEM; host or cells: WI-38 human fibroblasts
Assay Overview: Competitive FACS binding assay
Condition Details: pIC50 Category (FACS), competition with 3 nM Cy5-labeled compound, WI-38 fibroblasts, 4° C., 1 hour
Numbered stars: 1 amine (or outer) side, 2 acyl side, 3 side chain; on linkers, the order of the positions; unused ones are H or OH. Bridge positions count the residues as written; N and C are the ends. Peptide text beside a SMILES is read from it. * marks the point of attachment. X19 = NC(=O)[C@H](CCCCNC(=O)CN1CCN(CC(=O)O)CCN(CC(=O)O)CCN(CC(=O)O)CC1)NC(=O)CCC(=O)NCCCOCCOCCNCCCN*; X4 = O=C1CN2CCN3CCN(CC(=O)N4CCN(Cc5cc(C[*:1])cc(C[*:2])c5)CC4)CCN(CC2)CC(=O)[O][In]([O]1)[O]C(=O)C3; NH(CH2)5NHDOTA = O=C(O)CN1CCN(CC(=O)O)CCN(CC(=O)NCCCCCN*)CCN(CC(=O)O)CC1; mXylylene = c1cc(C[*:1])cc(C[*:2])c1; Hexanoyl = CCCCCC(=O)*
Readout Label: IC50

[
  {
    "Molecule": "CCCCCC(=O)N[C@H]1CSCc2cccc(c2)CSC[C@@H](C(=O)N[C@@H](CC(=O)O)C(=O)NCCCCCNC(=O)CN2CCN(CC(=O)O)CCN(CC(=O)O)CCN(CC(=O)O)CC2)NC(=O)[C@H](Cc2ccccc2)NC(=O)[C@H](CCC(N)=O)NC(=O)[C@H]([C@@H](C)O)NC(=O)[C@@H]2CCCN2C(=O)[C@@H]2CCCN2C1=O [3BP-3403] (Hexanoyl-CPPTQFCD-{NH(CH2)5NHDOTA}; linker 1-7 via mXylylene)",
    "Readout Label": "IC50",
    "Observed": "< 0.01 µM"
  }
]

Input: // lookup IC50 for CCCCCC(=O)N[C@H]1CSCc2cccc(c2)CSC[C@@H](C(=O)N[C@@H](CC(=O)O)C(=O)NCCCNCCOCCOCCCNC(=O)CCC(=O)N[C@@H](CCCCNC(=O)CN2CCN(CC(=O)O)CCN(CC(=O)O)CCN(CC(=O)O)CC2)C(N)=O)NC(=O)[C@H](Cc2ccccc2)NC(=O)[C@H](CCC(N)=O)NC(=O)[C@H]([C@@H](C)O)NC(=O)[C@@H]2CCCN2C(=O)[C@@H]2CCCN2C1=O [3BP-3395] (Hexanoyl-CPPTQFCD-X19; linker 1-7 via mXylylene)
Output: < 0.01 µM

Input: Consider the molecule shown here: CCCCCC(=O)N[C@H]1CSCc2cc(cc(CN3CCN(C(=O)CN4CCN5CCN6CCN(CC4)CC(=O)[O][In]([O]C(=O)C6)[O]C(=O)C5)CC3)c2)CSC[C@@H](C(=O)N[C@@H](CC(=O)O)C(N)=O)NC(=O)[C@H](Cc2ccccc2)NC(=O)[C@H](CCC(N)=O)NC(=O)[C@H]([C@@H](C)O)NC(=O)[C@@H]2CCCN2C(=O)[C@@H]2CCCN2C1=O [3BP-3590] (Hexanoyl-CPPTQFCD-NH2; linker 1-7 via X4) What is its recorded IC50?
Output: < 0.01 µM

Input: Which IC50 is listed for CCCCCC(=O)N[C@H]1CSCc2cc(CSCCNC(=O)CN3CCN(CC(=O)O)CCN(CC(=O)O)CCN(CC(=O)O)CC3)cc(c2)CSC[C@@H](C(=O)O)NC(=O)[C@H](Cc2ccccc2)NC(=O)[C@H](CCC(N)=O)NC(=O)[C@H]([C@@H](C)O)NC(=O)[C@@H]2CCCN2C(=O)[C@@H]2CCCN2C1=O [3BP-3554] ?
Output: < 0.01 µM

----------
Tested On: Human recombinant FAP (Homo sapiens, UniProt Q12884)
Assay Overview: FRET-based FAP protease activity assay
Type: biochemical
Parameters: purchased R&D systems 3715-SE
Condition Details: pIC50 Category (Activity), FRET substrate, 37° C.
Numbered stars: 1 amine (or outer) side, 2 acyl side, 3 side chain; on linkers, the order of the positions; unused ones are H or OH. Bridge positions count the residues as written; N and C are the ends. Peptide text beside a SMILES is read from it. * marks the point of attachment. X4 = O=C1CN2CCN3CCN(CC(=O)N4CCN(Cc5cc(C[*:1])cc(C[*:2])c5)CC4)CCN(CC2)CC(=O)[O][In]([O]1)[O]C(=O)C3; Pentanesulfonyl = CCCCCS(=O)(=O)*
Readout Label: IC50

[
  {
    "Compound": "CCCCCS(=O)(=O)N[C@H]1CSCc2cc(cc(CN3CCN(C(=O)CN4CCN5CCN6CCN(CC4)CC(=O)[O][In]([O]C(=O)C6)[O]C(=O)C5)CC3)c2)CSC[C@@H](C(=O)N[C@@H](CC(=O)O)C(N)=O)NC(=O)[C@H](Cc2ccccc2)NC(=O)[C@H](CCC(N)=O)NC(=O)[C@H]([C@@H](C)O)NC(=O)[C@@H]2CCCN2C(=O)[C@@H]2CCCN2C1=O [3BP-3717] (Pentanesulfonyl-CPPTQFCD-NH2; linker 1-7 via X4)",
    "Observed": "< 10 nM"
  },
  {
    "Compound": "CCCCCC(=O)N[C@H]1CSCc2cc(CSCCNC(=O)CN3CCN(CC(=O)O)CCN(CC(=O)O)CCN(CC(=O)O)CC3)cc(c2)CSC[C@H](C(=O)O)NC(=O)[C@H](Cc2ccccc2)NC(=O)[C@H](CCC(N)=O)NC(=O)[C@H]([C@@H](C)O)NC(=O)[C@@H]2CCCN2C(=O)[C@@H]2CCCN2C1=O",
    "Observed": "10 to 79.4 nM"
  }
]

Here is the next item to consider.
Input: Form field: reported IC50 of `CCCCCC(=O)N[C@H]1CSCc2cc(CSCCNC(=O)CCC(=O)NCCCOCCOCCOCCCNC(=O)CCC(=O)NCCCOCCOCCOCCCNC(=O)CCC(=O)NCCCOCCOCCOCCCNC(=O)CCCNCCCOCCOCCOCCCNC(=O)CCCC[C@H]3SC[C@H]4NC(=O)N[C@H]43)cc(c2)CSC[C@@H](C(=O)O)NC(=O)[C@H](Cc2ccccc2)NC(=O)[C@H](CCC(N)=O)NC(=O)[C@H]([C@@H](C)O)NC(=O)[C@@H]2CCCN2C(=O)[C@@H]2CCCN2C1=O`
Output: 10 to 79.4 nM
